Molecular target: OR10S1 (Homo sapiens) (UniProt Q8NGN2)
Sequence (whole entry): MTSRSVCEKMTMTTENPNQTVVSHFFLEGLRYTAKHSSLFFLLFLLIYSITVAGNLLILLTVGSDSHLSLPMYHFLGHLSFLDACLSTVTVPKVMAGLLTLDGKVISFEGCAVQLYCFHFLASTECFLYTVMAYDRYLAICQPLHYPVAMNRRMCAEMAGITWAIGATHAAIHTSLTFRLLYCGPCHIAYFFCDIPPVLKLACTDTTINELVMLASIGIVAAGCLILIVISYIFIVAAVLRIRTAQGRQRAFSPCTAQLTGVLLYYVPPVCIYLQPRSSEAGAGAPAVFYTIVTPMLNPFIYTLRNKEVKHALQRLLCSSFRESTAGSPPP
Settings: stereoisomer not certain
Labels: t (active), f (inactive)

* CCC1OC(C)=C(O)C1=O (centres undefined) | f
* CC(C=O)Cc1ccc(C(C)(C)C)cc1 (centres undefined) | t
* CCCCCCCCCCCCCCCCCC(=O)[O-].[H+] | f
* CC1=C(O)C(=O)C(C)O1 (centres undefined) | f
